Biological target: SARS-CoV-2 main protease (M^Pro) (Severe acute respiratory syndrome coronavirus 2)
Assay: biochemical
pKi: −log10 of the molar value.

compound	pKi
O=C(O)c1cc(=O)c2c(OCC(O)COc3cccc4oc(C(=O)O)cc(=O)c34)cccc2o1 [Cromoglicic acid, cromoglicic acid]	6.17

###

Target: SARS-CoV-2 main protease (M^Pro) (Severe acute respiratory syndrome coronavirus 2, UniProt P0DTD1)
Assay: biochemical

compound	IC50 [µM]
O=C(O)c1cc(=O)c2c(OCC(O)COc3cccc4oc(C(=O)O)cc(=O)c34)cccc2o1 [Cromoglicic acid, cromoglicic acid]	1.1

###

Experiment: MTT cytotoxicity assay
Format: cell-based
Settings: normal human adult dermal fibroblasts (HDFa)
compounds and their reported CC50 at 24 h

compound-structure	CC50 at 24 h
O=C(O)c1cc(=O)c2c(OCC(O)COc3cccc4oc(C(=O)O)cc(=O)c34)cccc2o1	> 100 µM
COC(=O)c1cc2cc(CCc3cc4c(o3)C(=O)c3c(O)c(OC)cc(OC)c3C4=O)c(O)c(O)c2c(=O)o1	16.7 µM
